test: Toxicity in mouse assessed as overt effects; type: organism-based; details: in vivo
measured-property: LD50 (mg/kg)

1. N#Cc1cc(C#N)c(Cl)cc1Cl ... 178
2. N#Cc1c(Cl)cc(Cl)c(C#N)c1Cl ... 100
3. CCCCNC(=O)Oc1c(Cl)c(Cl)c(C#N)c(Cl)c1C#N ... 178
4. CNc1c(C#N)c(Cl)c(C#N)c(NC)c1C#N ... 300
5. CCNc1c(C#N)c(Cl)c(C#N)c(NCC)c1C#N ... 300
6. N#Cc1ccc(Br)cc1 ... 237
7. N#Cc1cc(C#N)cc(C#N)c1 ... 300
8. CCCCCS(=O)(=O)c1c(Cl)c(Cl)c(C#N)c(Cl)c1Cl ... 237
9. N#Cc1c(Cl)c(C#N)c(Nc2ccccc2O)c(C#N)c1Cl ... 24
10. Cc1cccc(Nc2c(C#N)c(Cl)c(C#N)c(Cl)c2C#N)c1C ... 75
11. N#Cc1c(Cl)c(C#N)c(Nc2ccc(Cl)cc2)c(C#N)c1Cl ... 178
12. N#Cc1c(Cl)c(C#N)c(Nc2ccc(F)cc2F)c(C#N)c1Cl ... 56
13. COc1ccc(Nc2c(C#N)c(Cl)c(C#N)c(Cl)c2C#N)cc1OC ... 178
14. CC(C)Nc1c(C#N)c(Cl)c(C#N)c(NC(C)C)c1C#N ... 300
15. N#Cc1cc(C#N)c(F)cc1F ... 56
16. COc1c(Cl)c(Cl)c(C#N)c(Cl)c1C#N ... 178
17. N#Cc1cccc(C#N)c1Cl ... 300
18. Cc1c(C#N)c(C)c(C#N)c(C)c1C#N ... 40
19. N#Cc1c(Cl)c(C#N)c(Cl)c(C#N)c1Cl ... 24
20. CCCCS(=O)(=O)c1c(Cl)c(Cl)c(C#N)c(Cl)c1Cl ... 237
21. Cc1c(Cl)cccc1Nc1c(C#N)c(Cl)c(C#N)c(Cl)c1C#N ... 42
22. N#Cc1c(Cl)c(C#N)c(Nc2ccc(Br)cc2)c(C#N)c1Cl ... 300
23. CCCC(=O)Oc1c(Cl)c(Cl)c(C#N)c(Cl)c1C#N ... 178
24. CC(C)C(=O)Oc1c(Cl)c(Cl)c(C#N)c(Cl)c1C#N ... 237

---

test system: Rattus norvegicus; experiment: Antiinflammatory activity in Long Evans rat assessed as reduction of carrageenan-induced pedal edema at 50 mg/kg, po administered 1 hr prior to carrageenan challenge measured after 3 hrs relative to control; format: functional; parameters: scale not given: the % may be the effect or the level left
// NB: equality with 20% counts as criterion not met; only Activity strictly below is criterion met

1) Cc1c(C#N)c(C)c(C#N)c(C)c1C#N ... criterion not met
2) N#Cc1cc(C#N)c(F)cc1F ... criterion not met
3) Cc1cccc(Nc2c(C#N)c(Cl)c(C#N)c(Cl)c2C#N)c1C ... criterion not met
4) N#Cc1c(F)c(F)c(C#N)c(F)c1F ... criterion not met
5) CC(C)CCC(=O)Oc1c(Cl)c(Cl)c(C#N)c(Cl)c1C#N ... criterion met

---

system: Rattus norvegicus; assay: Antiinflammatory activity in Long Evans rat assessed as reduction of carrageenan-induced pedal edema at 40 mg/kg, po administered 1 hr prior to carrageenan challenge measured after 3 hrs relative to control; assay type: functional; set-up: scale not given: the % may be the effect or the level left
// NB: equality with 10% counts as not fulfilled; only Activity strictly below is fulfilled

1) N#Cc1c(Cl)c(C#N)c(Nc2cccc(Cl)c2)c(C#N)c1Cl ... fulfilled
2) CNc1c(F)c(C#N)c(F)c(F)c1C#N ... not fulfilled
3) Cc1ccc(Nc2c(C#N)c(Cl)c(C#N)c(Cl)c2C#N)c(C)c1 ... not fulfilled
4) N#CCCS(=O)(=O)c1c(Cl)c(Cl)c(C#N)c(Cl)c1Cl ... fulfilled
5) N#Cc1c(Cl)c(C#N)c(Nc2ccc(F)cc2F)c(C#N)c1Cl ... not fulfilled

---

assay: Toxicity in mouse assessed as overt effects; type: organism-based; settings: in vivo
Reported LD50 values follow for various compounds
measured-property: LD50 (mg/kg)

1) N#Cc1ccc(F)c(C#N)c1 ... 178
2) CNc1c(F)c(C#N)c(F)c(F)c1C#N ... 56
3) N#Cc1cccc(C#N)c1 ... 178
